Molecular target: FGFR2 (Homo sapiens)
Sequence (P21802 399-821 limits assumed): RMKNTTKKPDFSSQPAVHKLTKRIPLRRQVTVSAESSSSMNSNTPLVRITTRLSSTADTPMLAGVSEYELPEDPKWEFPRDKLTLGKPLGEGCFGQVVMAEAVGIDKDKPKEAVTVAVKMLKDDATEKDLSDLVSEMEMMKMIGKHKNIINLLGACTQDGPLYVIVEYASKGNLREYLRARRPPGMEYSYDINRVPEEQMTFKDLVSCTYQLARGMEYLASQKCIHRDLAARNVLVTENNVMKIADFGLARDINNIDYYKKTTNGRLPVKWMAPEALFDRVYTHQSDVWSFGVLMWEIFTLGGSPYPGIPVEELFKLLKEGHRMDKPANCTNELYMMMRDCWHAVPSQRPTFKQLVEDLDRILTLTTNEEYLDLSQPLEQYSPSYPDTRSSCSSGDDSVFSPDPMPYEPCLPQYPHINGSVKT
Assay: FGFR wild type enzyme assay (HTRF KinEASE-TK), FGFR2
Conditions: Enz FGFR2 (nM), FGFR2 wild type enzyme assay
valueType: IC50 (nM)
Report as a plain number; the unit nM is understood.

Param item = N#Cc1ccccc1Sc1cc(-c2cnn([C@H]3CCCN(C(=O)CO)C3)c2)cn2ncc(C#N)c12 [Example 517] ; retrieve measured IC50.
0.4

Param item = Cc1c(-c2cc(Sc3ncc(F)cc3F)c3c(C#N)cnn3c2)cnn1[C@H]1CC[C@@H](NC(=O)CO)CC1 [Example 344] ; retrieve measured IC50.
3

Param item = N#Cc1cc(F)ccc1Sc1cc(-c2ccc(N3CCOC(CO)C3)nc2)cn2ncc(C#N)c12 (stereo not shown) [Example 646] ; retrieve measured IC50.
1

Param item = CC1(C)CC[C@@H](n2cc(-c3cc(Sc4ccccc4C#N)c4c(C#N)cnn4c3)cn2)CN1 [Example 594] ; retrieve measured IC50.
1
